Each item that follows carries a reported pKi.
Molecular target: human melanocortin 3 receptor (human)
Assay: competitive displacement of [125I]-NDP-alpha-MSH, membranes of CHO-K1 cells expressing hMC3-R
# log scale: pKi equals minus log10 of the concentration in mol/L

{"columns": ["substance", "reported_result"],
 "data": [
  ["Ac-Phe-Arg-c(Cys-D-Ala-His-D-Phe-Arg-Trp-Cys)-NH2 (peptide)", 7.83],
  ["Ac-Trp-Arg-c(Cys-D-Ala-His-D-Phe-Arg-Trp-Cys)-NH2 (peptide)", 7.38],
  ["Ac-2-Nal-Arg-c(Cys-D-Ala-His-D-Phe-Arg-Trp-Cys)-NH2 (peptide)", 7.46]
]}

-- ask I'm curious: which pKi was measured for Ac-1-Nal-Arg-c(Cys-D-Ala-His-D-Phe-Arg-Trp-Cys)-NH2 (peptide) tested on human melanocortin 3 receptor (human)?
-- reply 7.44

-- ask Hi! What's the reported pKi for Ac-Pff-Arg-c(Cys-D-Ala-His-D-Phe-Arg-Trp-Cys)-NH2 (peptide) on human melanocortin 3 receptor (human)?
-- reply 8.88

-- ask Provide value of pKi for this record tested with human melanocortin 3 receptor (human): Ac-Tyr-Arg-c(Cys-D-Ala-His-D-Phe-Arg-Trp-Cys)-NH2 (peptide)
-- reply 7.67

---

Reported Ki values are given for each entry in this list.
Target: hMC5-R (Homo sapiens)
Sequence (P33032 whole entry): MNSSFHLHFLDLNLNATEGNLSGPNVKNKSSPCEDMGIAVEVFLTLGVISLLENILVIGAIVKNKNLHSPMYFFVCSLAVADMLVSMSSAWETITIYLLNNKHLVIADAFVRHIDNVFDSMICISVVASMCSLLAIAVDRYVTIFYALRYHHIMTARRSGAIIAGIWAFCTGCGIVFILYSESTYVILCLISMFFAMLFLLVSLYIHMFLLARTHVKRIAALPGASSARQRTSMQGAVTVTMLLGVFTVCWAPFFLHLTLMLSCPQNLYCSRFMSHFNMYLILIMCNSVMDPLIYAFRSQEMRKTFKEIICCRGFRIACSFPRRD
Where a SMILES comes first, the peptide text is derived from it. Bridges are numbered along the chain shown (N, C = ends). [ ]: non-standard residue; d: D form.
The figure you give is taken to be in nM; do not add the unit.

Worked cases, Ki given:
{"columns": ["compound", "measurement_target", "reported_result"],
 "data": [
  ["CC(=O)N[C@@H](Cc1c[nH]c2ccccc12)C(=O)N[C@@H](CCCNC(=N)N)C(=O)N[C@H]1CSSC[C@@H](C(N)=O)NC(=O)[C@H](Cc2c[nH]c3ccccc23)NC(=O)[C@H](CCCNC(=N)N)NC(=O)[C@@H](Cc2ccccc2)NC(=O)[C@H](Cc2c[nH]cn2)NC(=O)[C@@H](C)NC1=O (Ac-WRC[dA]H[dF]RWC-NH2; disulfide 3-9)", "hMC5-R (Homo sapiens)", 1470],
  ["CC(=O)N[C@@H](Cc1cccc2ccccc12)C(=O)N[C@@H](CCCNC(=N)N)C(=O)N[C@H]1CSSC[C@@H](C(N)=O)NC(=O)[C@H](Cc2c[nH]c3ccccc23)NC(=O)[C@H](CCCNC(=N)N)NC(=O)[C@@H](Cc2ccccc2)NC(=O)[C@H](Cc2c[nH]cn2)NC(=O)[C@@H](C)NC1=O", "hMC5-R (Homo sapiens)", 888]
]}

-- ask Param item = CC(=O)N[C@@H](Cc1ccc(O)cc1)C(=O)N[C@@H](CCCNC(=N)N)C(=O)N[C@H]1CSSC[C@@H](C(N)=O)NC(=O)[C@H](Cc2c[nH]c3ccccc23)NC(=O)[C@H](CCCNC(=N)N)NC(=O)[C@@H](Cc2ccccc2)NC(=O)[C@H](Cc2c[nH]cn2)NC(=O)[C@@H](C)NC1=O ; retrieve measured Ki.
-- reply 714

---

Listed next: entries and their corresponding pKi.
Molecular target: human melanocortin 1 receptor (human) (UniProt Q01726)
Sequence (Q01726 whole entry): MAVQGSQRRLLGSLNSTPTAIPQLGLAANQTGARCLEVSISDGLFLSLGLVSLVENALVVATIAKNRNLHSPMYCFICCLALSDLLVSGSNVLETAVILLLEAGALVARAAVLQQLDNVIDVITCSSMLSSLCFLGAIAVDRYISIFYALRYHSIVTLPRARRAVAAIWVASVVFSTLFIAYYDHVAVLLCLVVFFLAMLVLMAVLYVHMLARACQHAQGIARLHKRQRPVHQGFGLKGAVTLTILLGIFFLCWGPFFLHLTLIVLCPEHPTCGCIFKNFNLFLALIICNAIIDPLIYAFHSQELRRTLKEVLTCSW
Test: competitive displacement of [125I]-NDP-alpha-MSH, membranes of CHO-K1 cells expressing hMC1-R
Note on pKi: it is the negative log10 of concentration, concentration in mol/L.

{"columns": ["substance", "pKi"],
 "data": [
  ["Ac-Pff-Arg-c(Cys-D-Ala-His-D-Phe-Arg-Trp-Cys)-NH2 (peptide)", 9.49],
  ["Ac-Phe-Arg-c(Cys-D-Ala-His-D-Phe-Arg-Trp-Cys)-NH2 (peptide)", 8.83],
  ["Ac-2-Nal-Arg-c(Cys-D-Ala-His-D-Phe-Arg-Trp-Cys)-NH2 (peptide)", 8.22],
  ["Ac-1-Nal-Arg-c(Cys-D-Ala-His-D-Phe-Arg-Trp-Cys)-NH2 (peptide)", 8.20]
]}

Okay, now this substance:
-- ask Would you kindly share the measured pKi for Ac-Trp-Arg-c(Cys-D-Ala-His-D-Phe-Arg-Trp-Cys)-NH2 (peptide) ?
-- reply 8.33
